Listed next: entries and their corresponding melting point.

Problem: Sample CN1C2CCC1CC(NC(=O)c1cccc3oc(-c4ccccc4)nc13)C2 (centres unmarked) — what was its melting point?
Result: 149 to 151 °C

Problem: Sample COc1ccc(-c2nc3cccc(C(=O)NC4CC5CCCC(C4)N5C)c3o2)cc1 (centres unmarked) — what was its melting point?
Result: 160 to 162 °C

Problem: Sample CN1CCC(NC(=O)c2cccc3oc(-c4ccccc4)nc23)CC1 — what was its melting point?
Result: 126 to 128 °C

Now consider the entry below.
Problem: Sample O=C(NC1CN2CCC1CC2)c1cccc2nc(-c3ccc(Cl)cc3)oc12 (centres unmarked) — what was its melting point?
Result: 181 to 183 °C
